Source listed as patent US20060247320A1.

# measuredTarget: KSP motor domain (Homo sapiens)
# Sequence (P52732 18-359 limits assumed): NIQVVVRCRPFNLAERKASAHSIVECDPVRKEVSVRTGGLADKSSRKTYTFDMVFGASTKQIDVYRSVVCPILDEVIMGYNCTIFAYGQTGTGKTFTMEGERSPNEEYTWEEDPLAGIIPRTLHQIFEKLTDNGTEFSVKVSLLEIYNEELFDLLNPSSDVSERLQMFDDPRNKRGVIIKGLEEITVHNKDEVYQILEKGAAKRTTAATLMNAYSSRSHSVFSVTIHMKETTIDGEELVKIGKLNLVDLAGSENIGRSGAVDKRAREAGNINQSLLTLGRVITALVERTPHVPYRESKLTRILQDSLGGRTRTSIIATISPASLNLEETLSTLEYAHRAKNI
# assayExplanation: biochemical
# conditionSummary: KSP inhibitory activity, end-point assay; class symbols (Table 1); read-out: IC50
pIC50: −log10 of the molar value.
We begin with a simple list: items and their reported pIC50.

compound="CC(C)(C)C1CCc2nc3sc(-c4ncc(CN)o4)cc3cc2C1 (centres unmarked)" valueobserved="5.00 to 6.00"
compound="CC1Cc2nc3sc(C#N)cc3cc2CC1C(C)(C)C (centres unmarked)" valueobserved="6.00 to 7.00"
compound="CC(CO)NC(=O)c1cc2cc3c(nc2s1)CCC(C(C)(C)C)C3 (centres unmarked) [Example 76]" valueobserved="5.00 to 6.00"

// query Could you tell me which pIC50 is on file for CC(C)(C)C1CCc2nc3sc(C(N)=S)cc3cc2C1 (centres unmarked) ?
// result 6.00 to 7.00

// query So what's the measured pIC50 for this one? Cn1ccc(C(=O)Nc2cccc([C@@H](CN)NC(=O)c3cc4cc5c(nc4s3)CC[C@@H](C(C)(C)C)C5)c2)n1
// result > 7.00

// query Looking for the measured pIC50 of CC(C)[C@@H](C#N)NC(=O)c1cc2cc3c(nc2s1)CCC(C(C)(C)C)C3 (some centres unmarked) , can you help?
// result < 5.00

// query Which pIC50 reading was recorded for the compound CC(C)(C)C1CCc2nc3sc(C(=O)N4CCC[C@@H]4C(=O)O)cc3cc2C1 (some centres unmarked) ?
// result < 5.00

// query Field request: pIC50 | item: CC(C)(C)C1CCc2nc3sc(C(=O)N[C@H](CN)c4ccccc4)nc3cc2C1 (some centres unmarked)
// result > 7.00
